What normalized signal at concentration 0.00152416 was measured for each of the following?
Tested on: Plasmodium berghei (Pb-Luc) exoerythrocytic-stage parasites
Settings: first series; concentration 0.00152416; fraction of control
Numbers only.

// known answers, use as guide
                                   compound                               system_name  endpoint_value
0  COCC(=O)N1C[C@H](C)[C@@H](OC)CN(C)C(=O)c2ccc(NC(=O)Nc3cccc(F)c3)cc2OC[C@@H]1C [BRD-K86826411-001-01-1]  Plasmodium berghei (Pb-Luc) exoerythrocytic-stage parasites          0.9593
1  C[C@H]1CN([C@@H](C)CO)C(=O)c2cc(C#Cc3ccccc3)cnc2O[C@H]1CN(C)C(=O)c1ccccc1 [BRD-K12503654-001-01-1]  Plasmodium berghei (Pb-Luc) exoerythrocytic-stage parasites            1.04

// for each compound in input: emit normalized signal at concentration 0.00152416
1. C[C@@H]1CN([C@H](C)CO)C(=O)c2cc(N(C)C)ccc2O[C@@H](C)CCCCO[C@H]1CN(C)S(=O)(=O)c1ccc(F)cc1 [BRD-K72687327-001-01-6]
2. COc1cccc(CN2[C@H](CO)[C@@H](c3ccccc3)C23CN(Cc2ccccc2OC)C3)c1 [BRD-K58149752-001-01-9]
3. C[C@@H]1CN([C@@H](C)CO)C(=O)c2cccc(NC(=O)C3CC3)c2O[C@@H]1CN(C)C(=O)Nc1ccc(C(F)(F)F)cc1 [BRD-K19818397-001-01-8]
4. C/C=C/c1ccc([C@H]2[C@@H](CO)N(CC3CCCCC3)[C@H]2CNC(C)C)cc1 [BRD-K63968422-001-01-5]

OUT:
1. 1.10
2. 0.91
3. 0.8006
4. 1.12

###

Test system: HepG2-A16-CD81EGFP cells
Method Notes: cells
Settings: Homo sapiens, HepG2, read-out: Tox max inhibition (%) @ 50 uM
Property Name: inhibition at 50 µM (%)
One number for each entry, in %.

>>> print(df.to_string())
                                   compound        property_name  endpoint_value
0  Cc1ccc(Cn2c(N3CCC(C(=O)NCc4cccs4)CC3)nc3ccccc32)cc1  inhibition at 50 µM              69

Answer for every listed entry: what is its inhibition at 50 µM? The entries follow.
1. COc1ccc(NC(=O)C2c3ccccc3C(=O)N(CC(C)C)C2c2cccs2)cc1Cl (centres unmarked)
2. Clc1cc(Br)ccc1-c1ccc(CNCC2CCNCC2)o1
3. CCOc1ccc(Nc2ccnc3cc(Cl)ccc23)cc1
4. CCCCCCn1c(=N)n(CC(O)COc2cccc(C)c2)c2ccccc21 (centres unmarked)
5. CCOc1ccc(CN2CCN(CC(O)COc3ccc(OCC(O)CN4CCN(Cc5ccc(OCC)cc5)CC4)cc3)CC2)cc1 (centres unmarked)
6. Cc1c(C)n(Cc2ccc(F)cc2)c2ccc(C(=O)NCc3ccco3)cc12

OUT:
[24, 100, 14, 99, 65, 32]

Each of the following entries comes with a recorded value; kindly state inhibition at 50 µM for each.
1. Nc1ccc(-c2nc3cc(Oc4ccc(Oc5ccc6[nH]c(-c7ccc(N)cc7)nc6c5)cc4)ccc3[nH]2)cc1
2. O=C(Nc1ccc(-c2nc3cc(NC(=O)c4ccc(Cl)cc4)ccc3[nH]2)cc1)c1ccc(Cl)cc1
3. c1ccc2c(NCCCCCCNc3c4c(nc5ccccc35)CCCC4)c3c(nc2c1)CCCC3
4. CN1CCN(c2ccc(Nc3c4ccccc4nc4ccccc34)cc2)CC1

OUT:
[100, 99, 101, 94]

Can you give me inhibition at 50 µM for all of these, one by one?
1. CCCCNc1nc(NC(C)(C)C)nc(NC(C)(C)C)n1
2. O=C(NC(c1ccccc1)c1ccc2cccnc2c1O)c1ccccc1 (centres unmarked)
3. COc1cc(-c2nc(-c3ccc(Sc4ccccc4)cc3)c(-c3ccccc3)[nH]2)cc(OC)c1O
4. CCN(CC)c1ccc(NC(=O)c2cccs2)cc1
5. CCCCCC(=O)N1c2ccccc2N=C2CC(c3ccc(OC)c(OC)c3)CC(O)=C2C1c1ccc(C(F)(F)F)cc1 (centres unmarked)
6. COc1cc(C(=O)ON=C(N)Cc2cccc3ccccc23)cc(OC)c1OC
7. CCc1ccc(Nc2cc(C)nc3nc(C)nn23)cc1
8. Oc1ccc(-c2nc(-c3ccc4oc5ccc(-c6[nH]c(-c7ccc(O)cc7)nc6-c6ccccc6)cc5c4c3)c(-c3ccccc3)[nH]2)cc1

OUT:
1: 41; 2: 84; 3: 82; 4: 6; 5: 4.23; 6: 100; 7: 9; 8: 39
